Molecular target: Gamma-aminobutyric acid receptor subunit alpha-1 (Rattus norvegicus); also: assay procedure not described here
Sequence (P62813 whole entry): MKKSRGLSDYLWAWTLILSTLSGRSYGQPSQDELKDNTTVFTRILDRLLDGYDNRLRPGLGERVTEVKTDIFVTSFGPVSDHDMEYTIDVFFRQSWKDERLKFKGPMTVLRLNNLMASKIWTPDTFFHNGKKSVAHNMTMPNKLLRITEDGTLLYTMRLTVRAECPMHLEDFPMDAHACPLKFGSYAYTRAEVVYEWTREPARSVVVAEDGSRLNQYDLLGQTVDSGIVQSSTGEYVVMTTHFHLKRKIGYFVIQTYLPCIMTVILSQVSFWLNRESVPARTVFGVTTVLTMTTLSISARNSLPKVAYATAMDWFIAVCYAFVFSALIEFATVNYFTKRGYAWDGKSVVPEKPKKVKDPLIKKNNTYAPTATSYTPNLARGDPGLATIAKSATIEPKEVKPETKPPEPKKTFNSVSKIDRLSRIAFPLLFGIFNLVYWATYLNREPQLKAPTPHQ
Type: functional
MEASUREMENT NAME: AC50

COMPOUND: O=C(O)CSCC(=O)NC1CCSC1=O (configuration not stated) [ERDOSTEINE]
TARGET SYSTEM: Gamma-aminobutyric acid receptor subunit alpha-1 (Rattus norvegicus); also: assay procedure not described here
RECORDED MEASUREMENT: > 30 µM
--
COMPOUND: CC(=O)OCC[N+](C)(C)C [ACETYLCHOLINE]
TARGET SYSTEM: Gamma-aminobutyric acid receptor subunit alpha-1 (Rattus norvegicus); also: assay procedure not described here
RECORDED MEASUREMENT: > 10 µM
--
COMPOUND: CCCC(C)(COC(N)=O)COC(=O)NC(C)C (configuration not stated) [CARISOPRODOL]
TARGET SYSTEM: Gamma-aminobutyric acid receptor subunit alpha-1 (Rattus norvegicus); also: assay procedure not described here
RECORDED MEASUREMENT: > 10 µM
--
COMPOUND: CN1c2ccccc2C(NCCCCCCC(=O)O)c2ccc(Cl)cc2S1(=O)=O (configuration not stated) [TIANEPTINE]
TARGET SYSTEM: Gamma-aminobutyric acid receptor subunit alpha-1 (Rattus norvegicus); also: assay procedure not described here
RECORDED MEASUREMENT: > 30 µM
--
COMPOUND: N#C[C@@H]1CCCN1C(=O)CNC12CC3CC(CC(O)(C3)C1)C2 [VILDAGLIPTIN]
TARGET SYSTEM: Gamma-aminobutyric acid receptor subunit alpha-1 (Rattus norvegicus); also: assay procedure not described here
RECORDED MEASUREMENT: > 30 µM
--
COMPOUND: NC(=O)CCC/N=C(\c1ccc(Cl)cc1)c1cc(F)ccc1O [PROGABIDE]
TARGET SYSTEM: Gamma-aminobutyric acid receptor subunit alpha-1 (Rattus norvegicus); also: assay procedure not described here
RECORDED MEASUREMENT: > 10 µM
--
COMPOUND: CCc1oc2ccccc2c1C(=O)c1cc(Br)c(O)c(Br)c1 [BENZBROMARONE]
TARGET SYSTEM: Gamma-aminobutyric acid receptor subunit alpha-1 (Rattus norvegicus); also: assay procedure not described here
RECORDED MEASUREMENT: > 30 µM

Numbers sourced from ChEMBL document CHEMBL5291721.
